I'd be grateful if you could share measured normalized growth for these entries.
- Assay Comment: chemical genetic growth profiling, strain panel (AID 1159580);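 further: tested at 20 µM; growth read once vehicle control cultures reached saturation at 30 °C; 1 = growth at the plate median or of vehicle wells; lower values mean less growth of the strain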
- Assay Setup: S. cerevisiae deletion strains, growth OD, locus YJL095W, strain BCK1, hits give low values
In all, about 5,500 compounds went through this assay and about 2,000 (36%) were called active. Not shown: some 18% with an inconclusive outcome. Some of the results follow.
// response body must contain only the number

Entry Cc1ncc([N+](=O)[O-])n1CC(C)O (centres undefined) — recorded normalized growth = 0.991

Entry COc1cc2c(cc1/C=C/C(=O)c1cc(OC)c(OC)cc1OC)OCO2 — recorded normalized growth = 1

Entry COc1ccc(CC2CCC(=NOC(=O)c3c(Cl)cccc3Cl)CC2)cc1 (centres undefined) — recorded normalized growth = 0.984

Entry CC1(C)C(O)CC(O)C2(C)C1CC(O)C1(C)C2CCC2(C)C(c3ccoc3)OC(=O)C3OC321 (centres undefined) — recorded normalized growth = 1

* * *

I'd be grateful if you could share measured normalized growth for these entries.
- Assay Comment: chemical genetic growth profiling, strain panel (AID 1159580)
- Assay Setup: S. cerevisiae deletion strains, growth OD, locus YMR223W, strain ubp8, hits give low values
Out of some 5,500 compounds screened, about 2,000 (36%) were called active. Not shown: some 18% with an inconclusive outcome. The list shows a part of the results.

Entry COC(=O)c1c(C)cc(OC(=O)c2c(C)c(Cl)c(O)c(C=O)c2O)c(C)c1O — recorded normalized growth = 0.979 (inactive)

Entry CN(C)CCC(c1ccc(Br)cc1)c1ccccn1 (stereo not given) — recorded normalized growth = 1.01 (inactive)

Entry COc1cc(S(C)=O)ccc1-c1nc2ncccc2[nH]1 (stereo not given) — recorded normalized growth = 0.998 (inactive)

Entry CC(CCC(=O)O)[C@H]1CCC2C3C[C@H](O)[C@@H]4C[C@H](O)CC[C@]4(C)C3CC[C@@]21C (stereo not given in full) — recorded normalized growth = 1.03 (inactive)

Entry O=C(O)c1ccccc1C(=O)Nc1ccc(S(=O)(=O)Nc2nccs2)cc1 — recorded normalized growth = 0.998 (inactive)

* * *

I'd be grateful if you could share measured normalized growth for these entries.
- Assay Comment: chemical genetic growth profiling, strain panel (AID 1159580)
- Assay Setup: S. cerevisiae deletion strains, growth OD, locus YOR069W, strain VPS5, hits give low values
Screen size: about 5,500 compounds; about 2,000 (36%) were called active. Another 18% or so got no clear call; they are omitted. This is one part of the list.
// response body must contain only the number

Entry CNC(=O)Oc1ccc2c(c1)[C@]1(C)CCN(C)[C@@H]1N2C — recorded normalized growth = 1.01

Entry CC[C@H](CCC(C)[C@H]1CCC2C3CCC4C[C@@H](O)CC[C@]4(C)C3CC[C@@]21C)C(C)C (stereo partly drawn) — recorded normalized growth = 1.01

Entry COc1ccc(C(=O)N2CCCC2=O)cc1 — recorded normalized growth = 0.987

* * *

- Assay Comment: chemical genetic growth profiling, strain panel (AID 1159580)
- Assay Setup: S. cerevisiae deletion strains, growth OD, locus YIL073C, strain SPO22, hits give low values
Hit rate of the full screen: of about 5,500 compounds, about 2,000 (36%) were called active. Another 18% or so got no clear call; they are omitted. The list shows a part of the results.
I'd be grateful if you could share measured normalized growth for these entries.
// response body must contain only the number

Entry COC(=O)CCC(=O)O[C@H]1CCC2(C)C(CCC3C2C(=O)[C@@H](O)C2(C)C3CC3OC4(CCC(C)CO4)[C@@H](C)C32)C1 (some centres not stated) — recorded normalized growth = 1

Entry C[C@@H]1O[C@@H](O[C@H]2C[C@@H](O)[C@]3(CO)C4C(CC[C@]3(O)C2)[C@@]2(O)CC[C@H](C3=CC(=O)OC3)[C@@]2(C)C[C@H]4O)[C@H](O)[C@H](O)[C@H]1O (some centres not stated) — recorded normalized growth = 0.981

Entry CC(CN1c2ccccc2Sc2cccnc21)N(C)C (configuration not stated) — recorded normalized growth = 0.999

Entry CC(=O)O[C@H]1CC[C@]2(C)C3C(=O)[C@@H](OC(C)=O)[C@@]4(C)C(C[C@@H]5O[C@]6(CCC(C)CO6)[C@@H](C)[C@@H]54)C3CC[C@H]2C1 (some centres not stated) — recorded normalized growth = 1.01

Entry CC(=O)O[C@H]1CC[C@]2(C)C3=CC(=O)[C@@]4(C)C(C[C@@H]5OC6(OCC(C)CC6Br)[C@@H](C)[C@@H]54)C3CC[C@H]2C1 (some centres not stated) — recorded normalized growth = 1.01

Entry N[C@@H](Cc1cc(I)c(Oc2ccc(O)c(I)c2)c(I)c1)C(=O)O — recorded normalized growth = 1.02

Entry CCN(CCCc1ccccc1)CCCc1ccccc1 — recorded normalized growth = 0.999

Entry CCC(=O)Nc1ccc(Cl)c(Cl)c1 — recorded normalized growth = 1.01

Entry CC(=O)OCC(=O)[C@@]1(O)[C@H](OC(C)=O)CC2C3CCC4=CC(=O)C=C[C@]4(C)[C@@]3(F)[C@@H](O)C[C@@]21C (some centres not stated) — recorded normalized growth = 1.02

Entry COc1cc2c(cc1O)C(Cc1ccc(O)cc1)N(C)CC2 (configuration not stated) — recorded normalized growth = 0.998

Entry CN(C)CCOC(=O)C(c1ccccc1)C1(O)CCCC1 (configuration not stated) — recorded normalized growth = 1.02

Entry NNCCc1ccccc1 — recorded normalized growth = 0.992

* * *

- Assay Comment: chemical genetic growth profiling, strain panel (AID 1159580);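 further: tested at 20 µM; growth read once vehicle control cultures reached saturation at 30 °C; 1 = growth at the plate median or of vehicle wells; lower values mean less growth of the strain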
- Assay Setup: S. cerevisiae deletion strains, growth OD, locus YER111C, strain swi4, hits give low values
The campaign covered roughly 5,500 compounds. About 2,000 (36%) were called active. Roughly 18% stayed inconclusive and do not appear here. This is one part of the list.
I'd be grateful if you could share measured normalized growth for these entries.
// response body must contain only the number

Entry CCCCCC1C(=O)CCC1CC(=O)OC (centres undefined) — recorded normalized growth = 0.982

Entry CCN(CC)C(C)CN1c2ccccc2Sc2ccccc21 (centres undefined) — recorded normalized growth = 0.987

Entry N[C@H](Cc1cc(I)c(Oc2ccc(O)c(I)c2)c(I)c1)C(=O)O — recorded normalized growth = 0.993

Entry CNCCCN1c2ccccc2CCc2ccccc21 — recorded normalized growth = 1.01

Entry COc1cc([C@H]2Oc3cc([C@H]4Oc5cc(O)cc(O)c5C(=O)[C@@H]4O)ccc3O[C@@H]2CO)ccc1O — recorded normalized growth = 1

Entry C/C=C/C(=O)N(CC)c1ccccc1C — recorded normalized growth = 0.995

Entry CN(C(=O)CN(CCO)CC(=O)N(C)C(C)(C)Cc1ccccc1)C(C)(C)Cc1ccccc1 — recorded normalized growth = 1.02

Entry CC(CN1c2ccccc2Sc2ccccc21)N(C)C (centres undefined) — recorded normalized growth = 0.98

Entry CC(CN(C)C)CN1c2ccccc2CCc2ccccc21 (centres undefined) — recorded normalized growth = 0.974

* * *

- Assay Comment: chemical genetic growth profiling, strain panel (AID 1159580);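 further: tested at 20 µM; growth read once vehicle control cultures reached saturation at 30 °C; 1 = growth at the plate median or of vehicle wells; lower values mean less growth of the strain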
- Assay Setup: S. cerevisiae deletion strains, growth OD, locus YBR009C, strain hhf1, hits give low values
Out of some 5,500 compounds screened, about 2,000 (36%) were called active. Another 18% or so got no clear call; they are omitted. Some of the results follow.
I'd be grateful if you could share measured normalized growth for these entries.
// response body must contain only the number

Entry CN1CCN(C2=Nc3ccccc3Oc3ccc(Cl)cc32)CC1 — recorded normalized growth = 1.01

Entry CN(C)CCC(c1ccc(Br)cc1)c1ccccn1 (stereo not drawn) — recorded normalized growth = 0.999

Entry Clc1ccc2c(c1)C(N1CCNCC1)=Nc1ccccc1O2 — recorded normalized growth = 0.963

* * *

- Assay Comment: chemical genetic growth profiling, strain panel (AID 1159580);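 further: tested at 20 µM; growth read once vehicle control cultures reached saturation at 30 °C; 1 = growth at the plate median or of vehicle wells; lower values mean less growth of the strain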
- Assay Setup: S. cerevisiae deletion strains, growth OD, locus YLR258W, strain gsy2, hits give low values
Hit rate of the full screen: of about 5,500 compounds, about 2,000 (36%) were called active. Not shown: some 18% with an inconclusive outcome. Some of the results follow.
I'd be grateful if you could share measured normalized growth for these entries.
// response body must contain only the number

Entry C[C@@H](N)[C@@H](O)c1ccccc1 — recorded normalized growth = 1.01

Entry CC1CCC2(OC1)OC1CC3C4CCC5C[C@@H](O)CCC5(C)C4=CCC3(C)C1[C@@H]2C (some centres not stated) — recorded normalized growth = 0.994

Entry Nc1ccn(C2O[C@H](CO)[C@@H](O)[C@H]2O)c(=O)n1 (some centres not stated) — recorded normalized growth = 1

Entry C[C@@H]1CC2C3C[C@H](F)C4=CC(=O)C=C[C@]4(C)[C@@]3(F)[C@@H](O)C[C@]2(C)[C@@]1(O)C(=O)COC(=O)C(C)(C)C (some centres not stated) — recorded normalized growth = 0.995

Entry COc1c2ccoc2nc2c(OC)c(OCC(O)C(C)(C)O)ccc12 (configuration not stated) — recorded normalized growth = 1.02

Entry CCN(CCCc1ccccc1)CCCc1ccccc1 — recorded normalized growth = 0.973

Entry COc1c(Cl)ccc(Cl)c1C(=O)O — recorded normalized growth = 0.986

Entry CC(=O)N=c1sc(S(N)(=O)=O)nn1C — recorded normalized growth = 1.01

Entry CC1=C2[C@H]3OC(=O)[C@@H](C)[C@@H]3CC[C@@]2(C)C=CC1=O — recorded normalized growth = 0.985

Entry C/C=C/C(=O)N(CC)c1ccccc1C — recorded normalized growth = 1.01

Entry C=C1[C@H]2CC[C@@]3(C)[C@H](c4ccoc4)OC(=O)C[C@]13O[C@H]1C[C@H](O)C(C)(C)[C@H](CC(=O)OC)[C@]12C — recorded normalized growth = 1

Entry NC(Cc1ccc(F)cc1)C(=O)O (configuration not stated) — recorded normalized growth = 1.02

Entry Clc1ccc2c(c1)C(N1CCNCC1)=Nc1ccccc1O2 — recorded normalized growth = 0.991

Entry Cc1cc(C)cc(OCC2CNC(=O)O2)c1 (configuration not stated) — recorded normalized growth = 0.981

Entry OC[C@H]1OC([S-])[C@H](O)[C@@H](O)[C@@H]1O.[Au+] (some centres not stated) — recorded normalized growth = 1.01

Entry CN[C@@H]1[C@H](OC2[C@H](O[C@H]3[C@H](O)[C@@H](O)[C@H](N=C(N)N)[C@@H](O)[C@@H]3N=C(N)N)O[C@@H](C)[C@]2(O)C=O)O[C@@H](CO)[C@H](O)[C@H]1O (some centres not stated) — recorded normalized growth = 0.991

Entry COc1ccc(C(=O)CC(=O)c2ccc(C(C)(C)C)cc2)cc1 — recorded normalized growth = 0.971

Entry COc1cc([C@@H]2c3cc4c(cc3[C@H](OC(C)=O)[C@H]3COC(=O)[C@@H]23)OCO4)cc(OC)c1OC — recorded normalized growth = 1.01

Entry C=C[C@H]1CN2CC[C@H]1C[C@@H]2[C@H](O)c1ccnc2ccccc12 — recorded normalized growth = 0.991

Entry C[C@@H]1O[C@@H](O[C@H]2C[C@@H](O)[C@]3(CO)C4C(CC[C@]3(O)C2)[C@@]2(O)CC[C@H](C3=CC(=O)OC3)[C@@]2(C)C[C@H]4O)[C@H](O)[C@H](O)[C@H]1O (some centres not stated) — recorded normalized growth = 1.02

Entry c1ccc2nc(N3CCNCC3)ccc2c1 — recorded normalized growth = 1.01

Entry Cc1ncc([N+](=O)[O-])n1CC(C)O (configuration not stated) — recorded normalized growth = 0.974

Entry NNCCc1ccccc1 — recorded normalized growth = 1.01

Entry CC(CN(C)C)CN1c2ccccc2CCc2ccccc21 (configuration not stated) — recorded normalized growth = 0.984

Entry CN1CCN(C2=Nc3ccccc3Oc3ccc(Cl)cc32)CC1 — recorded normalized growth = 0.975

Entry C[C@]12C=CC(=O)C=C1CCC1C3C[C@@H](O)[C@](O)(C(=O)CO)[C@@]3(C)C[C@H](O)[C@@]12F (some centres not stated) — recorded normalized growth = 0.983

Entry Cc1cc(O)c(C=O)c2c1C(=O)Oc1c(COC(=O)/C=C/C(=O)O)c(O)c(C(=O)O)c(C)c1O2 — recorded normalized growth = 0.987

Entry S=P(N1CC1)(N1CC1)N1CC1 — recorded normalized growth = 1.01

Entry COc1cc([C@H]2Oc3cc([C@H]4Oc5cc(O)cc(O)c5C(=O)[C@@H]4O)ccc3O[C@@H]2CO)ccc1O — recorded normalized growth = 1

Entry CC(=O)OCC(=O)[C@@]1(O)[C@H](OC(C)=O)CC2C3CCC4=CC(=O)C=C[C@]4(C)[C@@]3(F)[C@@H](O)C[C@@]21C (some centres not stated) — recorded normalized growth = 0.982

Entry CC(=O)Nc1nnc(S(N)(=O)=O)s1 — recorded normalized growth = 1.01

Entry CN(C)CCOC(=O)C(c1ccccc1)C1(O)CCCC1 (configuration not stated) — recorded normalized growth = 1.01

Entry COc1ccc(C(=O)N2CCCC2=O)cc1 — recorded normalized growth = 0.98

Entry NCC(CC(=O)O)c1ccc(Cl)cc1 (configuration not stated) — recorded normalized growth = 0.984

Entry C[C@H](N)[C@H](O)c1cccc(O)c1 — recorded normalized growth = 1

Entry O=C(O)c1ccccc1C(=O)Nc1ccc(S(=O)(=O)Nc2nccs2)cc1 — recorded normalized growth = 0.986

Entry CCCCCC1C(=O)CCC1CC(=O)OC (configuration not stated) — recorded normalized growth = 0.981
